# METHOD_SUMMARY: Apparent permeability across apical to basolateral side in vinblastine-treated human Caco-2 cells at 1 uM by HPLC-UV analysis
# Type: ADME
RECORDED_METRIC: Papp A→B at 1 µM (×10⁻⁶ cm/s)

MOLECULAR_STRING: Clc1ccc2c(c1)CCCc1nnc(C3CCN(c4ccccn4)CC3)n1-2
Papp A→B at 1 µM, ×10⁻⁶ cm/s: 37
//
MOLECULAR_STRING: CN1Cc2cc(Cl)ccc2-n2c(nnc2[C@H]2CC[C@H](Oc3ccccn3)CC2)C1
Papp A→B at 1 µM, ×10⁻⁶ cm/s: 43

P. COc1nc2cc(Cl)ccc2n2c(C3CCN(c4ccccn4)CC3)nnc12
Q. Cc1ccccc1N1CCN(C(=O)N2C[C@@H](C(=O)N3CCCC3)Cc3cc(Cl)ccc32)CC1
**Q:** Lower Papp A→B at 1 µM: P or Q ? # respond with the chosen item's label
**A:** Q
(Q: 10 ×10⁻⁶ cm/s, P: 28 ×10⁻⁶ cm/s)
